- Test system: SW480
- ASSAY INFO: Antiproliferative activity against human SW480 cells assessed as inhibition of cell growth by MTS assay
- Assay type: functional, cell-based
pIC50: −log10 of the molar value.
VALUE TYPE: pIC50

I. CCOC(=O)CC[C@H](NC(=O)[C@H](CC(=O)OCC)NC(=O)[C@H](Cc1ccc2ccccc2c1)NC(=O)Cc1cc2cc(Cl)ccc2[nH]1)C(=O)OC
II. COC(=O)[C@H](CCC(=O)O)NC(=O)[C@H](CC(=O)O)NC(=O)[C@H](Cc1ccc2ccccc2c1)NC(=O)Cc1cc2cc(Cl)ccc2[nH]1
input: Lab note: check whether I or II shows the higher recorded pIC50. API: response body contains the label of the selected item.
output: I
(I: 4.54, II: 3.63)
